# Target or system: human PD-1 (Jurkat-PD-1 cells) / PE-labeled human PD-L1-Ig (Homo sapiens)
# Construct: expressed in transfected cells; host or cells: Jurkat cell line over-expressing human PD-1
# Test summary: Jurkat-PD-1 Cell Binding High-Content Screening Assay (CBA); Jurkat hPD1-PDL1 assay
# Setup conditions: Jurkat cell line over-expressing human PD-1; PE-labeled PD-L1-Ig 20 nM final; compound incubated 2 hours at 37° C.; read-out: Jurkat HPD1-PDL1 IC50
pIC50: −log10 of the molar value. Positions of bridges follow the written chain, without caps; N, C: chain ends. Non-standard residues stand in square brackets, D forms with d. Residues, ends and D or L forms follow the SMILES beside them. Bip = N[C@@H](Cc1ccc(-c2ccccc2)cc1)C(=O)O; dHyp = O=C(O)[C@H]1C[C@H](O)CN1; NMeA = CN[C@@H](C)C(=O)O
Outcome measure: pIC50

{"Compound": "CC(C)C[C@@H]1NC(=O)[C@H](Cc2c[nH]c3ccccc23)NC(=O)[C@H](CC(=O)O)NC(=O)[C@H](Cc2ccc(O)cc2)NC(=O)[C@H](Cc2ccccc2)NC(=O)CSC[C@@H](C(=O)N[C@@H](C)C(N)=O)NC(=O)[C@H](CO)NC(=O)[C@H](C(C)C)NC(=O)[C@H](CC(C)C)NC(=O)[C@H](CC(N)=O)NC(=O)[C@H]2C[C@H](O)CN2C(=O)[C@H](C)N(C)C(=O)[C@H](C(C)C)NC(=O)[C@H](Cc2ccc(-c3ccccc3)cc2)NC1=O [Example 1054] ({CH2CO}-FYDWL[Bip]V[NMeA][dHyp]NLVSCA-NH2; thioether N-14)", "Outcome measure": "pIC50", "Observed value": 6.92}

* * *

# Target or system: human PD-1 (Jurkat-PD-1 cells) / PE-labeled human PD-L1-Ig (Homo sapiens, UniProt Q15116)
# Construct: expressed in transfected cells; host or cells: Jurkat cell line over-expressing human PD-1
# Sequence (Q15116 25-288): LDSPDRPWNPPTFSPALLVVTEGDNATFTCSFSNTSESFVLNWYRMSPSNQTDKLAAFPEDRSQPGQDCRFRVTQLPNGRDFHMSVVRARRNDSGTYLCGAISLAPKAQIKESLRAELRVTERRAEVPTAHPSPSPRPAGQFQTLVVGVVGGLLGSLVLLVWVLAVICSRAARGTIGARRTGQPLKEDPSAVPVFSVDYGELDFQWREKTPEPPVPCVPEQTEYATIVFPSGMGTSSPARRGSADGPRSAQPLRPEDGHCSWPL
# Test summary: Jurkat-PD-1 Cell Binding High-Content Screening Assay (CBA); Jurkat hPD1-PDL1 assay
# Setup conditions: Jurkat cell line over-expressing human PD-1; PE-labeled PD-L1-Ig 20 nM final; compound incubated 2 hours at 37° C.; read-out: Jurkat HPD1-PDL1 IC50
Positions of bridges follow the written chain, without caps; N, C: chain ends. Non-standard residues stand in square brackets, D forms with d. Residues, ends and D or L forms follow the SMILES beside them. Bip = N[C@@H](Cc1ccc(-c2ccccc2)cc1)C(=O)O; NMeF = CN[C@@H](Cc1ccccc1)C(=O)O; NMeA = CN[C@@H](C)C(=O)O

{"Compound": "CC(C)C[C@@H]1NC(=O)[C@H](CCCNC(=N)N)NC(=O)[C@H](Cc2ccccc2)N(C)C(=O)[C@H](C)N(C)C(=O)[C@H](CCCNC(=N)N)NC(=O)[C@H](Cc2ccc(-c3ccccc3)cc2)NC(=O)[C@H](C(C)C)NC(=O)[C@H](Cc2c[nH]c3ccccc23)NC(=O)[C@H](CC(=O)O)NC(=O)[C@H](Cc2ccc(O)cc2)NC(=O)[C@H](CC(N)=O)NC(=O)CSC[C@@H](C(=O)N[C@@H](C)C(N)=O)NC(=O)[C@H](CO)NC(=O)[C@H](C(C)C)NC1=O [Example 1301] ({CH2CO}-NYDWV[Bip]R[NMeA][NMeF]RLVSCA-NH2; thioether N-14)", "IC50 (nM)": 150}
